# reported EC50, saporin (Fab-ZAP) cell killing, 293.PTK7 Cells; entries follow
Molecular target: T1, human PTK7, full length, expressed on transduced cells (human, UniProt Q13308 31-1070)
T1 sequence: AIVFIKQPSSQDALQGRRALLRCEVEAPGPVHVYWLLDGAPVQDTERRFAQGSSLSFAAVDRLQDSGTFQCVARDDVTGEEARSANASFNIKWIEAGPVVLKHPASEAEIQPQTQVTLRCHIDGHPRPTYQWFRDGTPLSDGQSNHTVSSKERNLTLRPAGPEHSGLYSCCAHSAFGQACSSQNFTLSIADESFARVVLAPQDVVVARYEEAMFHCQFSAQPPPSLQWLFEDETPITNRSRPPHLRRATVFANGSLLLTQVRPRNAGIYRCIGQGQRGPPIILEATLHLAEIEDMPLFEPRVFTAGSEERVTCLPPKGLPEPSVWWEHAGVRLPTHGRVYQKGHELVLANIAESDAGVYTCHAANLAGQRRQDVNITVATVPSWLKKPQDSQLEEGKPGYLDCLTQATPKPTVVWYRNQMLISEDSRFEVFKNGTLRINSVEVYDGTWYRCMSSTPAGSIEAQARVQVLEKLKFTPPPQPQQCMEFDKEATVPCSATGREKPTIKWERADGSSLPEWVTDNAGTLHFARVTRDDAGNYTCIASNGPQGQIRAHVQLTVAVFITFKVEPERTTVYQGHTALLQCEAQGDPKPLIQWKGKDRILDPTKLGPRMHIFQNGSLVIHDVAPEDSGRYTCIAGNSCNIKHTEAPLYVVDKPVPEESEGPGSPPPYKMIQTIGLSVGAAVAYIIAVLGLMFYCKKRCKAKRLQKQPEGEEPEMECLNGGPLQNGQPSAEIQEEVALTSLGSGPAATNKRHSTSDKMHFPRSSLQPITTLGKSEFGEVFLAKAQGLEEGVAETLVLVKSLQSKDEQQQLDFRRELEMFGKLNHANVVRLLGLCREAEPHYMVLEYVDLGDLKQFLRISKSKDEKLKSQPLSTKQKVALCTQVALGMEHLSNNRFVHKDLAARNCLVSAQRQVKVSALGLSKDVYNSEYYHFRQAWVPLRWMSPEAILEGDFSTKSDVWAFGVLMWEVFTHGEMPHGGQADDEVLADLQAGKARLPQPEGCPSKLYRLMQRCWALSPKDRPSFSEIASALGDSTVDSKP
Assay: cell-based or functional assay

[
  {
    "binder": "SC6.24 (antibody, V domains shown, Murine monoclonal antibody, kappa light chain) VH: QVQLQQSGPEVVRPGVSVKISCKGSGYTFTDYAVHWVKLSHAKSLEWIGVISTYNDYTYNNQDFKGKATMTVDKSSSTAYMELARLTSEDSAIYYCARGNSYFYALDYWGQGTSVTVSS VL: DIVLTQSPASLAVSLGQRATISCRASESVDSYGKSFMHWYQQRPGQPPKLLIYRASNLESGIPARFSGSGSRTDFTLTINPVEADDVATYYCQQSNEDPWTFGGGTKLEIK",
    "test-result": "2.3 pM"
  },
  {
    "binder": "SC6.2.35 (antibody, V domains shown, Murine monoclonal antibody from a hybridoma; also called H2.35; SC6.H2) VH: QVQMQQSGAELMKPGASVKLSCKATGYTFTGYWIEWVKQRPGHGLEWIGEILPGSGRSNSNEKFKGKATFTADTSSNTAYMQLSSLTTEDSAIYYCARGKLSWGQGTLVTVSA VL: DIVLTQSPASLAVSLGQRATISCRASESVDSFGNSFMHWYQQKPGQPPKLLIYAASNLGSGVPARFSGSGSGTDFSLNIHPVEEDDSAMYFCQQSKEVPRTFGGGSRLEIKR",
    "test-result": "0.65 pM"
  }
]

Let us move to another entry and its EC50, saporin (Fab-ZAP) cell killing, 293.PTK7 Cells.
Prompt: Would you kindly share the measured EC50, saporin (Fab-ZAP) cell killing, 293.PTK7 Cells for SC6.21 (antibody, V domains shown, Murine monoclonal antibody) VH: DVQLQESGPGLVKPSQTLSLTCSVPDYSITSDYHWHWIRQFPGNKLEWMGYISSRGSTNYNPSLKNRISITHDTSENQFFLKLTSVTTEDSATYYCAGLSQLALDYWGQGTTLTVSS VL: DIVMSQSPSSLAVSVGEKVTLSCKSSQSLLYSSTQNNYLAWYQQTPGQSPKLLIYWASTRESGVPDRFTGSGSGTDFTLTISSVKAEDLAVYYCQQYYSYPWTFGGGTKLEIK ?
Response: 30.6 pM
